Biological target: T1, Rabbit v6-peptide (rabbit)
T1 construct: domain: v6-region (43 amino acids); also called Rb v6-peptide; rb v6-peptide
Assay: SPR SCK, antibody immobilised, peptide injected

- binder: "AL-MN114-465 IgG1 LALA IAHA (antibody, V domains shown, Human IgG1 LALA IAHA, kappa) VH: EVQLLESGGGLVQPGGSLRLSCAASGFSFGSYAMSWVRQAPGKGLEWVSAISAGGSSTFYADSVKGRFTISRDNSKNTLYLQMNSLRAEDTAVYYCARHYYSDSDYRSSAAMDYWGQGTLVTVSS VL: DIQMTQSPSSLSASVGDRVTITCRASQSISSYLNWYQQKPGKAPKLLIYTASSLQSGVPSRFSGSGSGTDFTLTISSLQPEDFATYYCQQDLYLLTFGQGTKLEIK"
  Kd / nM: 19
- binder: "AL-MN114-71 IgG1 LALA IAHA (antibody, V domains shown, Human IgG1 LALA IAHA, kappa) VH: EVQLLESGGGLVQPGGSLRLSCAASGFSFRSFAMSWVRQAPGKGLEWVSAISGGGSSTFYADSVKGRFTISRDNSKNTLYLQMNSLRAEDTAVYYCARHYYSDSDYRSSAAMDYWGQGTLVTVSS VL: DIQMTQSPSSLSASVGDRVTITCRASQSISSYLNWYQQKPGKAPKLLIYAASTLQSGVPSRFSGSGSGTDFTLTISSLQPEDFATYYCQQDLYLLTFGQGTKLEIK"
  Kd / nM: 22
- binder: "AL-MN114-132 IgG1 LALA (antibody, V domains shown, item 20 iii) gives heavy 77 / light 96 without naming the format) VH: EVQLLESGGGLVQPGGSLRLSCAASGFTFSSYAMSWVRQAPGKGLEWVSAISGGGSSTYYADSVKGRFTISRDNSKNTLYLQMNSLRAEDTAVYYCARHYYSDSDYRSSAAMDYWGQGTLVTVSS VL: DIQMTQSPSSLSASVGDRVTITCRASQSISSYLNWYQQKPGKAPKLLIYAASSLQSGVPSRFSGSGSGTDFTLTISSLQPEDFATYYCQQDLYLLTFGQGTKLEIK"
  Kd / nM: 13
- binder: "AL-MN114-132 IgG1 LALA IAHA (antibody, V domains shown, Human IgG1 LALA IAHA, kappa) VH: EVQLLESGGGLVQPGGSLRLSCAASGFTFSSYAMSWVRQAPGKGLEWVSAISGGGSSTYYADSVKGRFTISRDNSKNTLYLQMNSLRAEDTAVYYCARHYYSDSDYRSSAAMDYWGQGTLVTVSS VL: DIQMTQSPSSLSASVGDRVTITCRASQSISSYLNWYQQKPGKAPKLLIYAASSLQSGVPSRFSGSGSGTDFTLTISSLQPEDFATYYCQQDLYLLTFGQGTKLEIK"
  Kd / nM: 37
- binder: "AL-MN114-444 IgG1 LALA IAHA (antibody, V domains shown, Human IgG1 LALA IAHA, kappa) VH: EVQLLESGGGLVQPGGSLRLSCAASGFTFRSFAMSWVRQAPGKGLEWVSAISGGGSSTFYADSVKGRFTISRDNSKNTLYLQMNSLRAEDTAVYYCARHYYSDSDYRSSAAMDYWGQGTLVTVSS VL: DIQMTQSPSSLSASVGDRVTITCRASQSIGSYLNWYQQKPGKAPKLLIYSASSLQSGVPSRFSGSGSGTDFTLTISSLQPEDFATYYCQQDLYLLTFGQGTKLEIK"
  Kd / nM: 15
